polymerase ribozyme fitness (log ratio) overview
B1: TPR 5TU (parent)
chain: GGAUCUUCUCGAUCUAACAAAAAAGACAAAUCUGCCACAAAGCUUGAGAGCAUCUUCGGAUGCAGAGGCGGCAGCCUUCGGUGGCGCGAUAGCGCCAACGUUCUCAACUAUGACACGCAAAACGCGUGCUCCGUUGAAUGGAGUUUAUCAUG

# Variants of: B1
# assay_method_text: polymerase ribozyme fitness, log enrichment relative to wild type (log ratio); higher = more active; in vitro selection for triplet polymerase activity
Variants at the floor of the assay were thinned out.

Examples from the recorded data:
>>> print(df.to_string())
                      mutation_label  reported_result
0          G11A U55A U77G G83C A142U           ≤ -4.2
1                          A20C C87A           ≤ -4.2
2                      C5A A20C C96U           -0.294
3  A21G C27G C114U U135G U146A U148G           ≤ -4.2

May I ask what polymerase ribozyme fitness (log ratio) has been recorded for U53G C79A C87A U102G ?
≤ -4.2

May I ask what polymerase ribozyme fitness (log ratio) has been recorded for A29C U53A G84C C93U A121G C125G ?
≤ -4.2

May I ask what polymerase ribozyme fitness (log ratio) has been recorded for U55A C96G ?
-1.04

May I ask what polymerase ribozyme fitness (log ratio) has been recorded for A37C U55A C72U G88C A98G C103G U127C U134A ?
≤ -4.2

May I ask what polymerase ribozyme fitness (log ratio) has been recorded for U31C U45A A97U G117A ?
-4.09

May I ask what polymerase ribozyme fitness (log ratio) has been recorded for A89U C95G ?
-1.9

May I ask what polymerase ribozyme fitness (log ratio) has been recorded for U15G A24U A60G G92U ?
0.475
